tested on: UACC-62; test: 3 day proliferation assay, B-Raf V600E mutant cancer cell line; assay type: cell-based; details: Homo sapiens; UACC-62, Skin, BRAF V600E; read-out: Mean gIC50
experimental readout: IC50

1) CC(C)(C)c1nc(-c2cccc(NS(=O)(=O)c3c(F)cccc3F)c2F)c(-c2ccnc(N)n2)s1 [Example 58a]    < 100 nM

====

Target: BRAFV600E full-length (amino acids 2-766) (Homo sapiens, UniProt P15056, V600E)
Construct: His6-tagged BRAFV600E full-length (amino acids 2-766); His6; made in house; host or cells: baculovirus expression system (insect cells)
Sequence (P15056 2-766 V600E): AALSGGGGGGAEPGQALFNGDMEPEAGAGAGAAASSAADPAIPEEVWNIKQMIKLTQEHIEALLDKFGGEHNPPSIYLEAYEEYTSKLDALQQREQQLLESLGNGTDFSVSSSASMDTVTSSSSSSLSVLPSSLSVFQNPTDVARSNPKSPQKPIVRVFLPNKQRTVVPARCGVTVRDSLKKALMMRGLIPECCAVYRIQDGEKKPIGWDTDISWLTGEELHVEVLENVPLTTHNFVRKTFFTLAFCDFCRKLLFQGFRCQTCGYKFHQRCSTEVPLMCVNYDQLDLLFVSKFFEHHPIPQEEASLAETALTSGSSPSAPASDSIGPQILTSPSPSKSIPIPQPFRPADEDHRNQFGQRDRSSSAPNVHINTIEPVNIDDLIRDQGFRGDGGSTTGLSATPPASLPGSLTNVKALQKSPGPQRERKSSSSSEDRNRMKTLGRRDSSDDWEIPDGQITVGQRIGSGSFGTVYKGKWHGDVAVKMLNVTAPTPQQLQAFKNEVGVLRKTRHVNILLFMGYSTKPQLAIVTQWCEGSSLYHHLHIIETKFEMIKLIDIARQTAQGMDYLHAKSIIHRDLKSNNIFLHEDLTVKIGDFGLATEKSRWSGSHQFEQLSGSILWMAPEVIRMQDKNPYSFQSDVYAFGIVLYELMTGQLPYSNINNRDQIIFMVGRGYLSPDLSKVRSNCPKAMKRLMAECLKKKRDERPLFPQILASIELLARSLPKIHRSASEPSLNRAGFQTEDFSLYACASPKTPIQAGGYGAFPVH
Assay: B-Raf Accelerated MEK ATPase assay (BRAMA)
Assay type: biochemical
Conditions: B-Raf pIC50, Table 1b; later runs, average pIC50 for the one or more runs, categorized
Description: Compounds of the present invention were tested for B-Raf protein serine kinase inhibitory activity in a B-Raf Accelerated MEK ATPase assay (BRAMA). […] The BRAMA assay is a high sensitivity assay which measures an intrinsic MEK-mediated ATP hydrolysis uncoupled from downstream ERK phosphorylation by coupling the formation of ADP to NADH oxidation through the enzymes pyruvate kinase and lactate dehydrogenase. […]
pIC50: −log10 of the molar value.
Listed below: pIC50 values for each entry.
experimental readout: pIC50

1) CC(C)(C)c1nc(-c2cccc(NS(=O)(=O)c3cc(F)ccc3F)c2F)c(-c2ccnc(NCC(F)F)n2)s1    ≥ 8.50
2) Nc1nccc(-c2sc(C3CCOCC3)nc2-c2cccc(NS(=O)(=O)c3cc(F)ccc3F)c2F)n1    ≥ 8.50
3) Cc1nccc(-c2sc(C(C)(C)C)nc2-c2cccc(NS(=O)(=O)c3ccco3)c2Cl)n1    ≥ 8.50
4) COCC(C)Nc1nccc(-c2sc(C(C)C)nc2-c2ccc(F)c(NS(=O)(=O)c3c(F)cccc3F)c2)n1 (stereo not drawn)    6.00 to 7.50
5) CC(C)CNc1nccc(-c2sc(N(C)C)nc2-c2cccc(NS(=O)(=O)c3c(F)cccc3F)c2)n1    6.00 to 7.50
6) CC(C)c1nc(-c2ccc(F)c(NS(=O)(=O)c3c(F)cccc3F)c2)c(-c2ccnc(NCCO)n2)s1    6.00 to 7.50
7) CCOC(=O)CCc1nccc(-c2sc(C(C)(C)C)nc2-c2cccc(NS(=O)(=O)c3c(F)cccc3F)c2F)n1    ≥ 8.50
8) CC(C)(C)c1nc(-c2cccc(NS(=O)(=O)c3c(F)cccc3F)c2F)c(-c2ccnc(NCCC#N)n2)s1    ≥ 8.50
9) Cc1ccc(S(=O)(=O)Nc2cccc(-c3nc(C(C)(C)C)sc3-c3ccnc(N)n3)c2F)cc1    6.00 to 7.50
10) CC(C)(C)c1nc(-c2cccc(NS(=O)(=O)c3cc(F)ccc3F)c2F)c(-c2ccnc(NCCCN3CCCC3=O)n2)s1    ≥ 8.50
11) CC(C)CNc1nccc(-c2sc(C(C)C)nc2-c2cccc(NS(=O)(=O)c3cccnc3)c2)n1    ≥ 8.50
12) Cc1nccc(-c2sc(C(C)(C)C)nc2-c2cccc(NS(=O)(=O)c3cc(F)ccc3F)c2F)n1    ≥ 8.50
13) Nc1nccc(-c2sc(N3CCOCC3)nc2-c2cccc(NS(=O)(=O)c3c(F)cccc3F)c2Cl)n1    ≥ 8.50
14) CC1(c2nc(-c3cccc(NS(=O)(=O)c4ccoc4)c3F)c(-c3ccnc(N)n3)s2)CCNCC1    ≥ 8.50
15) CC(=O)NCCNc1nccc(-c2sc(C(C)(C)C)nc2-c2cccc(NS(=O)(=O)c3cc(F)ccc3F)c2F)n1    ≥ 8.50
